- assay-overview: logP(HCOOH) reported with HPLC/MS
- experimental-parameters: method [b]: LC-MS, pH 2.7 with 0.1% formic acid in water and acetonitrile (0.1% formic acid), linear gradient 10% to 95% acetonitrile
# log p listing for each entry below

test-smiles	measured-attribute	measured-result
CN(C)c1ccc(C#Cc2cccc(CON=C(c3ccccc3)c3nnnn3C)n2)cc1	log p	4.29^[b]

### Prompt Tell me the measured log p of "Cc1nnnn1C(=NOCc1csc(C#CCC2CCCC2)n1)c1ccccc1" , please.
### Response 4.97^[b]

### Prompt Tell me the measured log p of "CCCOc1ccc(C#Cc2cccc(CON=C(c3ccccc3)c3nnnn3C)n2)cc1" , please.
### Response 4.86^[b]

### Prompt Tell me the measured log p of "CCCCCC#Cc1nc(CON=C(c2cccc(F)c2)c2nnnn2C)cs1" , please.
### Response 4.94^[b]

### Prompt Tell me the measured log p of "Cn1nnnc1C(=NOCc1csc(C#CCCO)n1)c1ccccc1" , please.
### Response 2.3^[b]

### Prompt Tell me the measured log p of "Cc1sc(C#CCCc2ccccc2)nc1CON=C(c1ccccc1)c1nnnn1C" , please.
### Response 4.65^[b]

### Prompt Tell me the measured log p of "Cn1nnnc1C(=NOCc1csc(Br)n1)c1cccc(F)c1" , please.
### Response 3.23^[b]

Reference source for all entries: patent US8466176B2
